- test.method.notes: Dynamic solubility experiment in water, SGF, FaSSIF, FeSSIF
- Type: physicochemical
- cond: thermodynamic from solid; fourth solvent (head is an image; water), room temperature, after 1 hour
endpoint.label: solubility at 1 h (µg/mL)

> print(dat)
                                   molecule  result.number
1  C=CC(=O)Nc1cc(Nc2ncc(F)c(-c3cnn(C)c3)n2)c(OC)cc1N1CCC(N(C)C)CC1 [the free base of compound of formula X]             10
